target entity: human GABAA α2β2γ1 receptor (Homo sapiens (Human), UniProt P47869+Q8N1C3)
measurement notes: Radioligand binding assay, competition for [3H]RO7239181, γ1-containing GABAA subtypes
conditions: Ki h-GABAA α2β2γ1, membranes of HEK293F cells, [3H]RO7239181 20-30 nM, Table 1
Entries whose Ki is below 20 nM take YES; entries at or above 20 nM take NO.

is_below(Ki, 20 nM) for Cc1nc2n(n1)-c1sc3c(c1C(c1c(F)cccc1F)=N[C@H]2C)COCCC3 [Example 57] ? YES

Next compound: Cc1nnc2n1-c1sc3c(c1C(c1c(F)cccc1Cl)=N[C@H]2C)COCCC3 [Example 61] NO

// same read-out, input: CCc1nc2n(n1)-c1sc3c(c1C(c1c(F)cccc1F)=N[C@H]2C)COC[C@H](C)O3 [Example 49] NO

Another compound: C[C@@H]1N=C(c2c(F)cccc2F)c2c(sc3c2COCCO3)-n2nc(C(=O)N3CC(OC(C)(C)C)C3)nc21 [Example 29] YES

How about this compound: C[C@@H]1N=C(c2c(F)cccc2F)c2c(sc3c2COCCO3)-n2c(C3CC3)nnc21 [Example 43] NO

Param item: Cc1nnc2n1-c1sc3c(c1C(c1c(F)cccc1F)=N[C@H]2C)CCCC[C@@H]3F (single isomer, unassigned) [Example 12] NO

Continue with Cc1nnc2n1-c1sc3c(c1C(c1c(F)cccc1F)=N[C@H]2C)COC[C@H](C)O3 [Example 30] NO

// query: CC(C)c1nnc2n1-c1sc3c(c1C(c1c(F)cccc1F)=N[C@H]2C)COCCO3 [Example 44] NO

====

Provide the recorded Efficacy (GABA) % for the entries that follow.
target entity: h-GABA-A α2β2γ1 (Homo sapiens (Human), UniProt P47869+Q8N1C3)
measurement notes: Two-electrode voltage clamp electrophysiology in Xenopus oocytes expressing GABAA receptors
Assay type: cell-based
conditions: % modulation of GABA EC20 = 100*(Fold increase−1), compound at about 30-fold its Ki α2β2γ1
Answer in %, number only, no unit symbol.

Efficacy (GABA) % lookup needed for C[C@@H]1N=C(c2c(F)cccc2F)c2c(sc3c2COCCO3)-n2nc(C(=O)NCC(C)(C)O)nc21 [Example 45] , thanks. 101

Quick one: Cc1nc2n(n1)-c1sc3c(c1C(c1c(F)cccc1F)=N[C@H]2C)CCCCC3 [Example 20] 76

Consider next the compound C[C@@H]1N=C(c2c(F)cccc2F)c2c(sc3c2COCCC3)-n2cc(C(=O)NCC(C)(C)O)nc21 [Example 67] in the same way. 164

Try this compound next: C[C@@H]1N=C(c2c(F)cccc2F)c2c(sc3c2COC[C@H](C)O3)-n2nc(C(=O)N3CC(F)C3)nc21 [Example 40] 141

Now consider C[C@@H]1N=C(c2c(F)cccc2F)c2c(sc3c2COC[C@H](C)O3)-n2nc(C(=O)N3CC(OC(C)(C)C)C3)nc21 [Example 41] . 167

Let us now turn to CCc1nc2n(n1)-c1sc3c(c1C(c1c(F)cccc1F)=N[C@H]2C)COC[C@H](C)O3 [Example 49] 131

Same again, this time with C[C@@H]1N=C(c2c(F)cccc2F)c2c(sc3c2COCCO3)-n2nc(C(=O)NC[C@@](C)(O)C(F)(F)F)nc21 [Example 46] 84
